# System: Malme-3M
# ASSAY DETAILS: NCI tumour cell line growth inhibition, 48 h
Active and inactive are the calls of the source. Cut-off read from the data, not from the text of the source: active = GI50 up to about 1.1 µM and inactive = higher.
VALUE KIND: GI50

COMPOUND | EXPERIMENTAL VALUE
O/N=C(\C=N\O)c1ccc2c(c1)Sc1ccccc1O2 | 29.5 µM (inactive)

Record GI50 for all entries; do not skip any.
1. CCCCC1=C(Br)C(=C(Br)Br)OC1=O
2. [N-]=[N+]=Nc1ccc(CCN2CCN(c3cccc(C(F)(F)F)c3)CC2)cc1I
3. BrC1=C(Br)C2(SCCS2)[C@H]2C[C@@H]1c1ccccc12
4. [O-][S+](Nc1ccccc1)c1ccc(N2CCOCC2)cc1 (stereo unspecified)
5. C[C@H]1CC[C@@H]2[C@@H](C)[C@H]3[C@H](C[C@H]4[C@@H]5CC=C6C[C@@H](O)CC[C@]6(C)[C@H]5C[C@H](O)[C@]34C)N2C1

### Response
1: 2.25 µM (inactive); 2: > 100 µM (inactive); 3: 32.1 µM (inactive); 4: 36.4 µM (inactive); 5: > 100 µM (inactive)

----------
# System: SK-OV-3
# ASSAY DETAILS: NCI tumour cell line growth inhibition, 48 h
The source made the active and inactive calls. Cut-off read from the data, not from the text of the source: active = GI50 up to about 1.1 µM and inactive = higher. Square brackets hold non-standard residues; d marks the D form. Peptide text beside a SMILES is read from it. * marks the point of attachment. Boc = CC(C)(C)OC(=O)*; OBn = c1ccc(CO*)cc1
Choose one outcome from this list and give only that: Y for active, N for inactive

Known results for compounds:
COMPOUND | ASSIGNED CLASS
CCCCC1=C(Br)C(=C(Br)Br)OC1=O | N
C=C[C@@]1(C)CC(=O)[C@]2(O)[C@@]3(C)[C@@H](OC(C)=O)CCC(C)(C)[C@@H]3[C@H](OC(C)=O)[C@H](OC(C)=O)[C@@]2(C)O1 | N
O=C(c1ccco1)N(C(=S)OCc1ccccn1)c1ccccc1 | N

### Prompt Recorded test call requested for Cc1ccc(/N=N/c2c(O)c3ccccc3[nH]c2=O)c(S(=O)(=O)N(C)C)c1
### Response N

### Prompt Given Nc1ccc(C2(c3ccc(N)cc3)C3CC4CC(C3)CC2C4)cc1 , state the outcome it received in this test.
### Response N

### Prompt Can you look up the reported call for COc1cc(C(C#N)NNC(=O)c2ccccc2O)ccc1O (centres undefined) for me?
### Response N

### Prompt Check the results log: what was the call for COc1cc2cc(C(=O)N3CC(CCl)c4c3cc([N+](C)(C)Cc3ccc([N+](=O)[O-])n3C)c3ccccc43)[nH]c2c(OC)c1OC (centres undefined) ?
### Response N

### Prompt What outcome does the record of this test show for CO[C@@]12CC(=O)/C(=C(O)\C=C\c3ccccc3)C(=O)[C@]1(OC)Cc1ccccc1O2 ?
### Response N

### Prompt Could you kindly confirm the outcome this assay logged for CC1=CC(=O)/C(=C/Nc2nc(-c3cccc([N+](=O)[O-])c3)cs2)C(=O)O1 ?
### Response N

### Prompt Kindly provide the recorded test outcome for the following compound: O=C(O)c1cc(Cl)cc2c1NC1(N2)C(=O)Nc2ccccc21 (centres undefined)
### Response N

### Prompt Outcome logged for CCC1C(c2ccccc2O)c2cc3c(cc2OC1N1CCOCC1)OCO3 (centres undefined) in this assay:
### Response N

### Prompt Which outcome was assigned to CCOC(=O)C1=C(Nc2ccc(Br)cc2)OC/C1=N\NC(=O)c1ccccc1O in this test?
### Response N

### Prompt Call for entry C[C@@H](NC(=O)CNC(=O)OC(C)(C)C)C(=O)N[C@@H](Cc1ccccc1)C(=O)OCc1ccccc1 (Boc-Gly-[dA]-Phe-OBn) :
### Response N

### Prompt GET /call?item= OCC(O)COCn1nncc1Cn1ncc2c(SCc3ccccc3)ncnc21 (centres undefined) returns the recorded outcome of this test.
### Response N

### Prompt Please let me know the test result on file for Oc1cc(-c2ccccc2)nc2c(S)cccc12 .
### Response N

### Prompt Write down the call the test reported for this compound. Item: C[C@]12C=CC(=O)C=C1CC[C@@H]1[C@@H]2C(=O)C[C@@]2(C)[C@H]1CC[C@]2(O)C(=O)CO [PREDNISONE]
### Response N

### Prompt Could you please tell me the result logged for O=[N+]([O-])c1ccc(/C=N/C2CCCCC2)cc1 in this assay?
### Response N

### Prompt Dear colleague, could you share the recorded outcome for COc1ccc(N[C@H](CSc2ccc(C)cc2)c2ccc(F)cc2)cc1 when you have a moment?
### Response N

### Prompt Returns: the outcome recorded for Cc1ccc(S(=O)(=O)NC(=O)Nc2cc(Cl)c(S(N)(=O)=O)cc2S(N)(=O)=O)cc1 in this assay.
### Response N

### Prompt Returns: the outcome recorded for CC1S/C(=N\N=C2/C(=O)Nc3ccc(Br)cc32)N(C2CCCCC2)C1=O (centres undefined) in this assay.
### Response N

### Prompt What classification did COc1c2c(c(O)c3c4c(c(C)cc13)C1OC3(C(OC)OC5CC(C)(O)C(OC6CC(C)(O)C(O)C(C)O6)C(C)O5)OC1C(OC)(O4)C31CO1)C(=O)C(O)CC2OC1CC(C)(O)C(OC(C)=O)C(C)O1 (centres undefined) end up with in this test?
### Response Y

----------
Hi there, I'd appreciate the recorded GI50 for every entry that follows.
# System: OVCAR-5
# ASSAY DETAILS: NCI tumour cell line growth inhibition, 48 h
Activity calls are given as the source filed them. Cut-off read from the data, not from the text of the source: active = GI50 up to about 1.1 µM and inactive = higher. Where a SMILES comes first, the peptide text is derived from it. [ ]: non-standard residue; d: D form. The star is where a group is joined. ξ: configuration not given here. NMeF = CN[C@@H](Cc1ccccc1)C(=O)O; NMeV = CN[C@H](C(=O)O)C(C)C; ξNMeN = CNC(CC(N)=O)C(=O)O; NMeA = CN[C@@H](C)C(=O)O; ξNMeV = CNC(C(=O)O)C(C)C; Boc = CC(C)(C)OC(=O)*

COMPOUND | GI50
CC(=O)c1sc(=N)n(-c2c(C)cccc2C)c1C | > 100 µM (inactive)
COC(=O)[C@H](C)N(C)C(=O)C(CC(N)=O)N(C)C(=O)[C@H](Cc1ccccc1)N(C)C(=O)[C@@H]1CCCN1C(=O)[C@H](C(C)C)N(C)C(=O)C(C(C)C)N(C)C(=O)[C@@H](NC(=O)OC(C)(C)C)C(C)C (stereo partly specified) (Boc-V[ξNMeV][NMeV]P[NMeF][ξNMeN][NMeA]-OMe) | > 50 µM (inactive)
NC(=O)NNC(=O)c1nc[nH]c1[N+](=O)[O-] | > 100 µM (inactive)
COc1ccc(NC(=O)CCc2cc(C(C)(C)C)[nH]n2)cc1 | > 100 µM (inactive)
O=C(O)C(O)C(O)C(O)C(O)c1nc2ccccc2s1 (stereo unspecified) | 26.9 µM (inactive)

The record that follows has no GI50 shown yet.
### Prompt Item O/N=C(\C=N\O)c1ccc2c(c1)Sc1ccccc1O2 with OVCAR-5 - GI50?
### Response 31.7 µM (inactive)

----------
# Tested on: MOLT-4
# ASSAY DETAILS: NCI tumour cell line growth inhibition, 48 h
Calls of active or inactive are those of the source. Cut-off read from the data, not from the text of the source: active = GI50 up to about 1.1 µM and inactive = higher.
Would you mind telling me the reported GI50 of each entry?

Example cases with answers are listed next.
COMPOUND | SUBJECT OF TEST | GI50
OCc1ccc(C2CC(c3ccco3)=NN2c2ccccc2)o1 (stereo not drawn) | MOLT-4 | > 100 µM (inactive)
COc1cc(C2S/C(=C/c3ccccc3)C(=O)N2c2ccc(Cl)cc2)cc(OC)c1OC (stereo not drawn) | MOLT-4 | 5.79 µM (inactive)
CSc1ncc2c(n1)C(C#N)C1Sc3ccccc3N1C2=O (stereo not drawn) | MOLT-4 | > 100 µM (inactive)
O=c1cnn2c(n1)sc1ccc3ccccc3c12 | MOLT-4 | 30.1 µM (inactive)
C[C@H]1CC[C@@H]2[C@@H](C)[C@H]3[C@H](C[C@H]4[C@@H]5CC=C6C[C@@H](O)CC[C@]6(C)[C@H]5C[C@H](O)[C@]34C)N2C1 | MOLT-4 | > 100 µM (inactive)
COC(=O)C1=C(C(=O)OC)C2OC1C1C2C2(C)C(C)=C(C)C1(C)[S+]2[O-] (stereo not drawn) | MOLT-4 | 2.02 µM (inactive)
C(/C=N/c1ccccc1)=C(/Nc1ccccc1)C12CC3CC(CC(C3)C1)C2 | MOLT-4 | 5.73 µM (inactive)

// next entry
### Prompt What GI50 value was documented for this compound, CCC(C)(O)c1cn(-c2cccc(S(=O)(=O)O)c2)nn1 (stereo not drawn) ?
### Response > 100 µM (inactive)

----------
# System: DMS-273
# ASSAY DETAILS: NCI tumour cell line growth inhibition, 48 h
Active and inactive are the calls of the source. Rule as the data show it: active = GI50 up to about 1.1 µM and inactive = higher.
VALUE KIND: GI50

// solved cases for GI50 follow
COMPOUND | SUBJECT OF TEST | GI50
NC(=S)N/C=C1\C(=O)Oc2ccccc2C1=O | DMS-273 | > 100 µM (inactive)
O=c1cnn2c(n1)sc1ccc3ccccc3c12 | DMS-273 | > 100 µM (inactive)
Cc1cc(N(CCC#N)CCC#N)ccc1/C=C1N=C(/C=C/c2ccccc2)OC(=O)N\1 | DMS-273 | > 100 µM (inactive)
COc1ccc(OC)c2c3c(ccc12)C(c1ccccc1)OC3=O (configuration not stated) | DMS-273 | 31.9 µM (inactive)

Below are 8 compounds. Give each one its GI50.
1. COc1ccccc1/C=C1\CCC(CN(C)C)C1=O (configuration not stated)
2. O=C(O)c1ccc(S(=O)(=O)c2ccccc2)c([N+](=O)[O-])c1
3. CCCCCCCCCCCCC(CCCCCCCCCCCC)OP(=O)(O)O
4. CN(C)[C@@H]1C(O)=C(C(=O)NCNCCCC(=O)O)C(=O)[C@@]2(O)C(O)=C3C(=O)c4c(O)cccc4[C@@](C)(O)[C@H]3C[C@@H]12
5. CCO/C=C1\N=C(c2ccccc2Br)OC1=O
6. COC(=O)C1OC(Oc2cc(O)c3c(=O)cc(-c4ccc(O)cc4)oc3c2)C(O)C(O)C1O (configuration not stated)
7. CC(=O)O[C@H]1CC[C@@]2(C)C(=C/C(=N\[N+](=O)[O-])[C@H]3C4CCC([C@H](C)CCCC(C)C)[C@@]4(C)CCC32)C1 (some centres not stated)
8. O=C(O)C1C2CCC(O2)C1C(=O)N1CCCCC1 (configuration not stated)

### Response
1. 6.9 µM (inactive)
2. 63.8 µM (inactive)
3. > 100 µM (inactive)
4. > 100 µM (inactive)
5. > 100 µM (inactive)
6. > 100 µM (inactive)
7. > 100 µM (inactive)
8. 10.6 µM (inactive)
